# credit: paper PMC11480844

B1: H2-Kb / H5 (parent)
chain 1: GEQVEQRPPHLSVREGDSAVIICTYTDPNSYYFFWYKQEPGAGLQLLMKVFSSTEINEGQGFTVLLNKKDKQLSLNLTAAHPGDSAVYFCAVSNYGSSGNKLIFGIGTLLSVKP
chain 2: EAAVTQSPRNKVAVTGGKVTLSCNQTNNHNNMYWYRQDTGHGLRLIHYSYGAGSTEKGDIPDGYKASRPSQENFSLILELATPSQTSVYFCASGDRERDTQYFGPGTRLLVL
chain 3: not shown
chain 4: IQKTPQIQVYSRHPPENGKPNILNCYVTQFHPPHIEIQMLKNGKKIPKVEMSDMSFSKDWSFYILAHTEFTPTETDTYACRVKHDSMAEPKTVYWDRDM
chain 5: SIINFEKL

# Variants of: B1
# procedure text: % of reporter cells activated (NFAT-GFP), raw; note: test concentration or dose not given here
# measurement setup: with H5; scale: % of reporter cells activated
Is ratio to parent at least 0.4? Then class 1. If not, class 0.

>>> class("chain 5 N4S")
"class 0"
>>> class("chain 5 N4A")
"class 0"
>>> class("chain 5 I2M")
"class 1"
>>> class("chain 5 S1T")
"class 1"
>>> class("chain 5 L8T")
"class 1"
>>> class("chain 5 S1M")
"class 1"
>>> class("chain 5 S1W")
"class 0"
>>> class("chain 5 E6D")
"class 0"
>>> class("chain 5 I3F")
"class 0"
>>> class("chain 5 I2T")
"class 1"
>>> class("chain 5 K7Y")
"class 0"
>>> class("chain 5 L8D")
"class 0"
>>> class("chain 5 K7W")
"class 0"
>>> class("chain 5 S1D")
"class 0"
>>> class("chain 5 I2N")
"class 0"
>>> class("chain 5 I3S")
"class 0"
>>> class("chain 5 I3H")
"class 0"
>>> class("chain 5 F5V")
"class 1"
>>> class("chain 5 L8V")
"class 1"
>>> class("chain 5 I3W")
"class 0"
>>> class("chain 5 N4V")
"class 0"
>>> class("chain 5 E6H")
"class 1"
>>> class("chain 5 K7F")
"class 0"
>>> class("chain 5 I3P")
"class 1"
>>> class("chain 5 L8P")
"class 0"
>>> class("chain 5 S1Q")
"class 1"
>>> class("chain 5 N4Y")
"class 1"
>>> class("chain 5 L8Q")
"class 1"
>>> class("chain 5 I3D")
"class 0"
>>> class("chain 5 E6S")
"class 1"
>>> class("chain 5 I2D")
"class 1"
>>> class("chain 5 K7I")
"class 1"
>>> class("chain 5 F5M")
"class 1"
>>> class("chain 5 F5L")
"class 1"
>>> class("chain 5 S1R")
"class 1"
>>> class("chain 5 L8H")
"class 1"
>>> class("chain 5 S1V")
"class 0"
>>> class("chain 5 I2Y")
"class 0"
>>> class("chain 5 I2W")
"class 0"
>>> class("chain 5 K7D")
"class 1"
>>> class("chain 5 E6Q")
"class 0"
>>> class("chain 5 I3K")
"class 1"
>>> class("chain 5 I2A")
"class 1"
>>> class("chain 5 E6R")
"class 0"
